Listed molecules paired with reported IG50
Test system: NCI-H1975
Assay: Cytotoxicity against human NCI-H1975 cells assessed as decrease in cell viability after 72 hrs by MTT assay
Format: functional
Report the figure in µM without appending any unit label.

For orientation, consider the following solved cases.
> print(dat)
                                        mol  experimental.value
1  CS(=O)(=O)CCNCc1ccc(-c2ccc3ncnc(Nc4ccc(F)c(Cl)c4)c3c2)o1               83.61
2  C/C=C/c1ccc(Nc2ncnc3ccc(-c4ccc(COC(C)=O)o4)cc23)cc1               40.85
3  C/C=C/c1ccc(Nc2ncnc3ccc(-c4ccc(CO)o4)cc23)cc1               37.93
4  CS(=O)(=O)CCNCc1ccc(-c2ccc3ncnc(Nc4ccc(OCc5cccc(F)c5)c(Cl)c4)c3c2)o1                9.08
5  C#Cc1cccc(Nc2ncnc3ccc(-c4ccc(CNCCS(C)(=O)=O)o4)cc23)c1               14.92

Requested field: IG50. Item: C#Cc1cccc(Nc2ncnc3ccc(-c4ccc(COC(C)=O)o4)cc23)c1
5.4

Requested field: IG50. Item: OCc1ccc(-c2ccc3ncnc(Nc4ccc(OCc5cccc(F)c5)c(Cl)c4)c3c2)o1
3.01

Requested field: IG50. Item: CC(=O)OCc1ccc(-c2ccc3ncnc(Nc4ccc(OCc5cccc(F)c5)c(Cl)c4)c3c2)o1
6.78

Requested field: IG50. Item: CC(=O)OCc1ccc(-c2ccc3ncnc(Nc4ccc(F)c(Cl)c4)c3c2)o1
54.13

----------
System: A-431
Test: Cytotoxicity against human A431 cells assessed as decrease in cell viability after 72 hrs by MTT assay
Assay type: functional
experimental.endpoint: IG50 (µM)
Report the figure in µM without appending any unit label.

> print(dat)
                                        mol  experimental.endpoint  experimental.value
1  CC(=O)OCc1ccc(-c2ccc3ncnc(Nc4ccc(OCc5cccc(F)c5)c(Cl)c4)c3c2)o1                   IG50                8.33
2  C#Cc1cccc(Nc2ncnc3ccc(-c4ccc(COC(C)=O)o4)cc23)c1                   IG50                1.28

Please examine the following record next.
Requested field: IG50. Item: C/C=C/c1ccc(Nc2ncnc3ccc(-c4ccc(CO)o4)cc23)cc1
21.43

----------
Biological target: Epidermal growth factor receptor (Homo sapiens)
Sequence (P00533 whole entry): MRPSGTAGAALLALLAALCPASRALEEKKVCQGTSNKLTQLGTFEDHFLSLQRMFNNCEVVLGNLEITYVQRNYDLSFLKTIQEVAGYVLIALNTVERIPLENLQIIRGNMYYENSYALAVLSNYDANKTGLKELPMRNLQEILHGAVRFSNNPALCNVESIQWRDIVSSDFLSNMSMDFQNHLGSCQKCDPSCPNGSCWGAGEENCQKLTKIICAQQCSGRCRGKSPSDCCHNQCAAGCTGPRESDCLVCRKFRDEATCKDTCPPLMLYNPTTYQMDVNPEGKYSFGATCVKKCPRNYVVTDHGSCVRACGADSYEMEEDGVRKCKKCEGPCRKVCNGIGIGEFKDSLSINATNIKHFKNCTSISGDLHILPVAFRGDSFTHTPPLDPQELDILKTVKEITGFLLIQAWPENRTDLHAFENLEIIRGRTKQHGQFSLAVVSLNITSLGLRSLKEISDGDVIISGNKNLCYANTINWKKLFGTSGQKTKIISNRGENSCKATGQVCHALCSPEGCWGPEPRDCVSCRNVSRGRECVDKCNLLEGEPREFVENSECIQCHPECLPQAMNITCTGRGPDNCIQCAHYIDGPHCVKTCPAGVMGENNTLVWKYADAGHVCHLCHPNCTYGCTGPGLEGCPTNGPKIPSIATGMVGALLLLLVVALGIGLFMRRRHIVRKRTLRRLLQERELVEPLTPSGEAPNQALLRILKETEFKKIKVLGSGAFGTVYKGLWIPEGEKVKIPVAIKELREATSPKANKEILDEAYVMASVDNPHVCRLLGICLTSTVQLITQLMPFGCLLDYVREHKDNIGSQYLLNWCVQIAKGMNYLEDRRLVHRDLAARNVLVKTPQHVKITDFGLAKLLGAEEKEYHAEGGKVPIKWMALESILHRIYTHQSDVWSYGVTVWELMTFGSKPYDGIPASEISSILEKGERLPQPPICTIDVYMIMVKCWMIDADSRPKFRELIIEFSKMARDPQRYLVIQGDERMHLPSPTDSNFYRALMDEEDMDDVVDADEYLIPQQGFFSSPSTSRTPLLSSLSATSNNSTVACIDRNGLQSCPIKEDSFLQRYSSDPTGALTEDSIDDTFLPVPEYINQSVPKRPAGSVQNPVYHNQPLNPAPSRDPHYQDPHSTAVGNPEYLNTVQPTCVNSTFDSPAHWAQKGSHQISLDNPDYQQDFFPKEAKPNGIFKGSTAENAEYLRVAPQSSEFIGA
Assay: Inhibition of wild type recombinant EGFR (unknown origin) using poly (Glu,Tyr) 4:1 as substrate after 60 mins by ELISA
Listed compounds paired with reported pIC50
Answer as the number alone; pIC50 is minus log10 of concentration in mol/L.

For orientation, consider the following solved cases.
> print(dat)
                                        mol  experimental.endpoint  experimental.value
1  CS(=O)(=O)CCNCc1ccc(-c2ccc3ncnc(Nc4ccc(F)c(Cl)c4)c3c2)o1                  pIC50                7.62
2  OCc1ccc(-c2ccc3ncnc(Nc4ccc(OCc5cccc(F)c5)c(Cl)c4)c3c2)o1                  pIC50                8.30

Please examine the following record next.
What is its pIC50 for Epidermal growth factor receptor (Homo sapiens)? Entry: C#Cc1cccc(Nc2ncnc3ccc(-c4ccc(CO)o4)cc23)c1
7.80

----------
System: A-431
Assay: Cytotoxicity against human A431 cells assessed as decrease in cell viability after 72 hrs by MTT assay
Format: functional
Listed compounds paired with reported log10 of IG50
Heads up, the numbers here are log10 of IG50 in µM units.

For orientation, consider the following solved cases.
> print(dat)
                                        mol  experimental.value
1  OCc1ccc(-c2ccc3ncnc(Nc4ccc(OCc5cccc(F)c5)c(Cl)c4)c3c2)o1                0.56
2  CS(=O)(=O)CCNCc1ccc(-c2ccc3ncnc(Nc4ccc(OCc5cccc(F)c5)c(Cl)c4)c3c2)o1                0.68

Requested field: log10 of IG50. Item: C#Cc1cccc(Nc2ncnc3ccc(-c4ccc(CNCCS(C)(=O)=O)o4)cc23)c1
0.76

Requested field: log10 of IG50. Item: C/C=C/c1ccc(Nc2ncnc3ccc(-c4ccc(CNCCS(C)(=O)=O)o4)cc23)cc1
1.57

Requested field: log10 of IG50. Item: CS(=O)(=O)CCNCc1ccc(-c2ccc3ncnc(Nc4ccc(F)c(Cl)c4)c3c2)o1
1.59

Requested field: log10 of IG50. Item: C#Cc1cccc(Nc2ncnc3ccc(-c4ccc(CO)o4)cc23)c1
0.51

Requested field: log10 of IG50. Item: C/C=C/c1ccc(Nc2ncnc3ccc(-c4ccc(COC(C)=O)o4)cc23)cc1
0.74

Requested field: log10 of IG50. Item: OCc1ccc(-c2ccc3ncnc(Nc4ccc(F)c(Cl)c4)c3c2)o1
0.59

Requested field: log10 of IG50. Item: CC(=O)OCc1ccc(-c2ccc3ncnc(Nc4ccc(F)c(Cl)c4)c3c2)o1
1.03

----------
System: NCI-H1975
Assay: Cytotoxicity against human NCI-H1975 cells assessed as decrease in cell viability after 72 hrs by MTT assay
Assay type: functional
experimental.endpoint: IG50

Requested field: IG50. Item: OCc1ccc(-c2ccc3ncnc(Nc4ccc(F)c(Cl)c4)c3c2)o1
>100 µM

Requested field: IG50. Item: C#Cc1cccc(Nc2ncnc3ccc(-c4ccc(CO)o4)cc23)c1
>100 µM

Requested field: IG50. Item: C/C=C/c1ccc(Nc2ncnc3ccc(-c4ccc(CNCCS(C)(=O)=O)o4)cc23)cc1
>100 µM
